# Tested target: Cytochrome P450 1A2 (Homo sapiens, UniProt P05177)
# Sequence (P05177 whole entry): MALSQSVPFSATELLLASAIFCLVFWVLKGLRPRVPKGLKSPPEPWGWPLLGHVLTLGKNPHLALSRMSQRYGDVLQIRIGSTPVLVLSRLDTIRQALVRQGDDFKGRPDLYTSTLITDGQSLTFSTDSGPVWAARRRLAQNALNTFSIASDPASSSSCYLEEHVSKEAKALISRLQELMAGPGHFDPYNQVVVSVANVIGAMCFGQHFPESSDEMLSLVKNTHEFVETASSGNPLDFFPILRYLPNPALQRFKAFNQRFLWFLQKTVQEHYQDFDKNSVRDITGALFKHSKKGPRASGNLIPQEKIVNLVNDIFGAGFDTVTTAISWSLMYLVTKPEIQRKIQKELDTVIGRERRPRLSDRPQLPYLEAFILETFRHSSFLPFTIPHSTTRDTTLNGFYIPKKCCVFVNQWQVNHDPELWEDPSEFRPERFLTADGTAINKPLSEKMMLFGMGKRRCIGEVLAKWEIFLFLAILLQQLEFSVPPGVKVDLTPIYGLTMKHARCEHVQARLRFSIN
# Assay info: Inhibition of human recombinant CYP1A2 after 15 mins

Compound: COc1ccccc1CCNCC(=O)N1CCc2ccccc2C1C1CCCCC1 (stereo unspecified)
Tested target: Cytochrome P450 1A2 (Homo sapiens, UniProt P05177)
Value units: µM
IC50: 26

###

# Tested target: Cytochrome P450 2C19 (Homo sapiens, UniProt P33261)
# Sequence (P33261 whole entry): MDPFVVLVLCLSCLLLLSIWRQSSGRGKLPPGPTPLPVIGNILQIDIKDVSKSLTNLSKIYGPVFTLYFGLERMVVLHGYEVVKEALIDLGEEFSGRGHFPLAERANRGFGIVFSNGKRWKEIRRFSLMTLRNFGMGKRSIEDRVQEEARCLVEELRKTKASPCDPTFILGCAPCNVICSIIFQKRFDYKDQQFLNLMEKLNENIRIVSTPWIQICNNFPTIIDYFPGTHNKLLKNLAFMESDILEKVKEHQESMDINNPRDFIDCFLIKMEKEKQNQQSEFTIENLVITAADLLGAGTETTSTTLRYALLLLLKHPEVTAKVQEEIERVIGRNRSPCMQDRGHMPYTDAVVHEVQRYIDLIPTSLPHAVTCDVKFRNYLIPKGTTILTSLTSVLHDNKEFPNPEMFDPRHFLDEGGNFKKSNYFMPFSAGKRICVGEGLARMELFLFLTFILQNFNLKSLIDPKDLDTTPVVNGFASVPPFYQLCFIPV
# Assay info: Inhibition of human recombinant CYP2C19 after 30 mins
Readout label: IC50 (µM)

Molecule: COc1ccccc1CCNCC(=O)N1CCc2ccccc2C1C1CCCCC1 (stereo unspecified)
Value units: µM
Numeric result: 3

###

As shown below, each of these molecules has a reported solubility value.
# Assay info: Aqueous solubility in Japanese Pharmacopoeia at pH 6.8
# Assay type: physicochemical
# Condition details: aqueous Japanese Pharmacopoeia medium, pH 6.8, pH 6.8

Molecule: COc1cc(CN2CCN(CCCCCC(c3ccc(F)cc3)c3ccc(F)cc3)CC2)cc(OC)c1OC
solubility: < 1 µM

Molecule: COc1ccccc1CCNCC(=O)N1CCc2ccccc2C1C1CCCCC1 (stereo not drawn)
solubility: > 100 µM

Molecule: COc1c(OC(C)(C)C)cc(CN2CC(=O)N(CCCCCC(c3ccc(F)cc3)c3ccc(F)cc3)CC2=O)cc1OC(C)(C)C
solubility: < 1 µM

###

The next entries give measured pIC50 for Voltage-gated inwardly rectifying potassium channel KCNH2 (Homo sapiens, UniProt Q12809).
pIC50: −log10 of the molar value.

Compound: O=C(CNCC1(O)CCCC1)N1CCc2ccccc2C1C1CCCCC1 (stereo not given)
Limit sign: =
pIC50: 4.10
--
Compound: O=C(CNCC1(O)CCCCCC1)N1CCc2ccccc2C1C1CCCCC1 (stereo not given)
Limit sign: =
pIC50: 4.30
--
Compound: COc1cc(CN2CCN(CCCCCC(c3ccc(F)cc3)c3ccc(F)cc3)CC2)cc(OC)c1OC
Limit sign: =
pIC50: 5.47
--
Compound: COc1c(OC(C)(C)C)cc(CN2CC(=O)N(CCCCCC(c3ccc(F)cc3)c3ccc(F)cc3)CC2=O)cc1OC(C)(C)C
Limit sign: <
pIC50: 4.00
--
Compound: O=C(CNCC1CCCCC1)N1CCc2ccccc2C1C1CCCCC1 (stereo not given)
Limit sign: =
pIC50: 4.59
